Biological target: CoV-2 Mac1 (Severe acute respiratory syndrome coronavirus 2, UniProt P0DTC1)
Experiment: biochemical
Type: binding
Settings: read-out: dissociation constant Kd

COMPOUND	Kd
Nc1ncnc2c1ncn2[C@@H]1O[C@H](COP(=O)(O)OP(=O)(O)OC[C@H]2OC(O)[C@H](O)[C@@H]2O)[C@@H](O)[C@H]1O (stereo partly shown)	10 to 12 µM

====

Target: CoV-2 Mac1 (Severe acute respiratory syndrome coronavirus 2, UniProt P0DTC1)
Assay: biochemical
Type: binding
Conditions: ITC, 25° C., 25 mM HEPES pH 7.5, 150 mM NaCl; read-out: Kd
PROPERTY NAME: Kd (µM)

MOLECULE	DATA VALUE
Nc1ncnc2c1ncn2[C@@H]1O[C@H](COP(=O)(O)OP(=O)(O)OC[C@H]2OC(O)[C@H](O)[C@@H]2O)[C@@H](O)[C@H]1O (stereo partly shown)	11.6
